Each recorded value in this set is attributed to ChEMBL document CHEMBL1614632.

test: clinical; details: human, in vivo, iv, t1/2
measurement label: half-life
Remember to put the unit after the number in your answer.

{"compound": "O=C(N[C@H](CO)[C@H](O)c1ccc([N+](=O)[O-])cc1)C(Cl)Cl", "half-life": "4.6 h"}
{"compound": "NC1CCN(c2c(F)cc3c(=O)c(C(=O)O)cn(C4CC4)c3c2Cl)C1 (stereo unspecified)", "half-life": "5.4 h"}
{"compound": "CC(=O)OCC1=C(C(=O)O)N2C(=O)[C@@H](NC(=O)Cc3cccs3)[C@H]2SC1", "half-life": "0.95 h"}
{"compound": "CN1CCOC(c2ccccc2)c2ccccc2C1 (stereo unspecified)", "half-life": "5 h"}
{"compound": "COc1cccc2c1C(=O)c1c(O)c3c(c(O)c1C2=O)C[C@@](O)(C(=O)CO)C[C@@H]3O[C@H]1C[C@H](N)[C@H](O)[C@H](C)O1", "half-life": "32 h"}

// for each compound below, give its half-life
1. CC(C)n1c(/C=C/C(O)CC(O)CC(=O)O)c(-c2ccc(F)cc2)c2ccccc21 (stereo unspecified)
2. C[C@H](N[C@@H](CCc1ccccc1)C(=O)O)C(=O)N1Cc2ccccc2C[C@H]1C(=O)O
3. Cc1[nH]cnc1CN1CCc2c(c3ccccc3n2C)C1=O

1: 0.7 h; 2: 2.3 h; 3: 1.6 h

// for each compound below, give its half-life
1. CC1CCCC(C)N1CCCC(O)(c1ccccc1)c1ccccn1 (stereo unspecified)
2. CC(Oc1ccccc1)C(=O)N[C@@H]1C(=O)N2[C@@H]1SC(C)(C)[C@@H]2C(=O)O (stereo partly specified)
3. CC(CCc1ccc2c(c1)OCO2)NCC(O)c1ccc(O)c(C(N)=O)c1 (stereo unspecified)
4. CC[C@H]1OC(=O)[C@H](C)C(=O)[C@H](C)[C@@H](O[C@@H]2O[C@H](C)C[C@H](N(C)C)[C@H]2O)[C@](C)(OC)C[C@@H](C)C(=O)[C@H](C)[C@H]2N(CCCCn3cnc(-c4cccnc4)c3)C(=O)O[C@]12C
5. Cn1nnnc1SCC1=C(C(=O)O)N2C(=O)[C@@H](NC(=O)[C@H](O)c3ccccc3)[C@H]2SC1

["8.4 h", "0.91 h", "11 h", "12 h", "0.75 h"]

// for each compound below, give its half-life
1. CCS(=O)(=O)CCn1c([N+](=O)[O-])cnc1C
2. O=C(O)CCCc1ccc(N(CCCl)CCCl)cc1
3. CC(=O)Oc1ccccc1C(=O)O

["13 h", "1.1 h", "0.26 h"]
